- EXPERIMENT_SUMMARY: Single ascending-dose clinical trial of intranasal betahistine in healthy volunteers (plasma pharmacokinetics, LC-MS/MS)
- CONDITIONS: both, human, plasma, inhaled or intranasal, 20 mg
MEASURED_ENDPOINT: AUC(0-t) (ng·h/mL)
Report the value in ng·h/mL with no unit label.

q: Query (compound): CNCCc1ccccn1 ; field requested: AUC(0-t)
a: 1.61

---

- EXPERIMENT_SUMMARY: Pharmacokinetic profile after single oral, intranasal and intravenous betahistine in beagle dogs, Example 5
- Format: in vivo
- CONDITIONS: female, beagle, dog, in vivo, po, 48 mg/kg, Betahistine Plasma Concentration
MEASURED_ENDPOINT: concentration at 0.5 h

q: Query (compound): CNCCc1ccccn1 ; field requested: concentration at 0.5 h
a: 19.4 ng/mL

---

Below: a set of entries, each annotated with reported Tmax.
- EXPERIMENT_SUMMARY: Pharmacokinetic profile after single oral, intranasal and intravenous betahistine in beagle dogs, Example 5
- Assay type: in vivo
- CONDITIONS: male, beagle, dog, in vivo, po, 24 mg/kg
Please state the value followed by its unit.

CNCCc1ccccn1	1 h

Could you now look at the following compound, please?
q: Query (compound): O=C(O)Cc1ccccn1 ; field requested: Tmax
a: 1.5 h

---

- EXPERIMENT_SUMMARY: Pharmacokinetic profile after single oral, intranasal and intravenous betahistine in beagle dogs, Example 5
- Format: in vivo
- CONDITIONS: female, beagle, dog, in vivo, po, 12 mg/kg, Betahistine Plasma Concentration
MEASURED_ENDPOINT: concentration at 0.167 h (ng/mL)
Report the value in ng/mL with no unit label.

q: Query (molecule): CNCCc1ccccn1 ; field requested: concentration at 0.167 h
a: 6.46

---

- EXPERIMENT_SUMMARY: Pharmacokinetic profile after single oral, intranasal and intravenous betahistine in beagle dogs, Example 5
- Assay type: in vivo
- CONDITIONS: female, beagle, dog, in vivo, po, 12 mg/kg, Betahistine Plasma Concentration
MEASURED_ENDPOINT: concentration at 0.333 h (ng/mL)
Report the value in ng/mL with no unit label.

q: Query (compound): CNCCc1ccccn1 ; field requested: concentration at 0.333 h
a: 10.1

---

- EXPERIMENT_SUMMARY: Pharmacokinetic profile after single oral, intranasal and intravenous betahistine in beagle dogs, Example 5
- Type: in vivo
- CONDITIONS: male, beagle, dog, in vivo, iv, 0.44 mg/kg, Betahistine Plasma Concentration
MEASURED_ENDPOINT: concentration at 6 h (ng/mL)
Report the value in ng/mL with no unit label.

q: Query (compound): CNCCc1ccccn1 [betahistine] ; field requested: concentration at 6 h
a: 1.05

---

Below: a set of entries, each annotated with reported Cmax.
- EXPERIMENT_SUMMARY: Pharmacokinetic profile after single oral, intranasal and intravenous betahistine in beagle dogs, Example 5
- Format: in vivo
- CONDITIONS: male, beagle, dog, in vivo, inhaled or intranasal, 9.8 mg/kg
- Experimental: In this study, the pharmacokinetic profile of betahistine was evaluated after a single dose administration of betahistine in male and female beagle dogs (age 5-7 months; weight of 5-11 kg, within a range of 3 kg for each sex) for three routes of administration: oral, intranasal, and intravenous. On Day 1 of the study, betahistine (BH) was delivered orally at a dose of 12 mg/kg, 24 mg/kg, or 48 mg/kg. Each treatment group comprised 8 animals (4 males and 4 females). […]
Report the value in ng/mL with no unit label.

O=C(O)Cc1ccccn1 [2-PAA, 2-pyridylacetic acid]	3320

Could you now look at the following molecule, please?
q: Query (molecule): CNCCc1ccccn1 [betahistine] ; field requested: Cmax
a: 735

---

- EXPERIMENT_SUMMARY: Pharmacokinetic profile after single oral, intranasal and intravenous betahistine in beagle dogs, Example 5
- Format: in vivo
- CONDITIONS: male, beagle, dog, in vivo, po, 24 mg/kg
MEASURED_ENDPOINT: Cmax

CNCCc1ccccn1 [betahistine]	38.3 ng/mL

Could you now look at the following compound, please?
q: Query (compound): O=C(O)Cc1ccccn1 [2-PAA, 2-pyridylacetic acid] ; field requested: Cmax
a: 26400 ng/mL

---

- EXPERIMENT_SUMMARY: Pharmacokinetic profile after single oral, intranasal and intravenous betahistine in beagle dogs, Example 5
- Format: in vivo
- CONDITIONS: female, beagle, dog, in vivo, po, 12 mg/kg, Betahistine Plasma Concentration
MEASURED_ENDPOINT: concentration at 24 h (ng/mL)
Report the value in ng/mL with no unit label.

q: Query (compound): CNCCc1ccccn1 ; field requested: concentration at 24 h
a: 0

---

- EXPERIMENT_SUMMARY: Pharmacokinetic profile after single oral, intranasal and intravenous betahistine in beagle dogs, Example 5
- Assay type: in vivo
- CONDITIONS: female, beagle, dog, in vivo, po, 24 mg/kg, Betahistine Plasma Concentration
MEASURED_ENDPOINT: concentration at 0 h (ng/mL)
Report the value in ng/mL with no unit label.

q: Query (compound): CNCCc1ccccn1 [betahistine] ; field requested: concentration at 0 h
a: 0

---

- EXPERIMENT_SUMMARY: Pharmacokinetic profile after single oral, intranasal and intravenous betahistine in beagle dogs, Example 5
- Type: in vivo
- CONDITIONS: male, beagle, dog, in vivo, iv, 0.44 mg/kg
MEASURED_ENDPOINT: Tmax (min)
Report the value in min with no unit label.

q: Query (compound): CNCCc1ccccn1 ; field requested: Tmax
a: 4.8

---

- EXPERIMENT_SUMMARY: Pharmacokinetic profile after single oral, intranasal and intravenous betahistine in beagle dogs, Example 5
- Format: in vivo
- CONDITIONS: both sexes, beagle, dog, in vivo, po, 24 mg/kg, Betahistine Plasma Concentration
- Procedure: In this study, the pharmacokinetic profile of betahistine was evaluated after a single dose administration of betahistine in male and female beagle dogs (age 5-7 months; weight of 5-11 kg, within a range of 3 kg for each sex) for three routes of administration: oral, intranasal, and intravenous. On Day 1 of the study, betahistine (BH) was delivered orally at a dose of 12 mg/kg, 24 mg/kg, or 48 mg/kg. Each treatment group comprised 8 animals (4 males and 4 females). […]
MEASURED_ENDPOINT: concentration at 1 h (ng/mL)
Report the value in ng/mL with no unit label.

q: Query (compound): CNCCc1ccccn1 ; field requested: concentration at 1 h
a: 31.9

---

- EXPERIMENT_SUMMARY: Single ascending-dose clinical trial of intranasal betahistine in healthy volunteers (plasma pharmacokinetics, LC-MS/MS)
- CONDITIONS: both, human, plasma, inhaled or intranasal, 10 mg
MEASURED_ENDPOINT: Cmax (ng/mL)
Report the value in ng/mL with no unit label.

q: Query (compound): CNCCc1ccccn1 ; field requested: Cmax
a: 2.11

---

- EXPERIMENT_SUMMARY: Single ascending-dose clinical trial of intranasal betahistine in healthy volunteers (plasma pharmacokinetics, LC-MS/MS)
- CONDITIONS: both, human, plasma, inhaled or intranasal
MEASURED_ENDPOINT: half-life

q: Query (compound): CNCCc1ccccn1 ; field requested: half-life
a: < 1 h

---

- EXPERIMENT_SUMMARY: Pharmacokinetic profile after single oral, intranasal and intravenous betahistine in beagle dogs, Example 5
- Type: in vivo
- CONDITIONS: both sexes, beagle, dog, in vivo, po, 48 mg/kg, Betahistine Plasma Concentration
MEASURED_ENDPOINT: concentration at 0.5 h (ng/mL)
Report the value in ng/mL with no unit label.

q: Query (compound): CNCCc1ccccn1 [betahistine] ; field requested: concentration at 0.5 h
a: 26.5

---

- EXPERIMENT_SUMMARY: Pharmacokinetic profile after single oral, intranasal and intravenous betahistine in beagle dogs, Example 5
- Format: in vivo
- CONDITIONS: female, beagle, dog, in vivo, po, 24 mg/kg
Below: a set of entries, each annotated with reported Cmax.
Report the value in ng/mL with no unit label.

O=C(O)Cc1ccccn1 [2-PAA, 2-pyridylacetic acid]	21300

q: Query (compound): CNCCc1ccccn1 [betahistine] ; field requested: Cmax
a: 38

---

- EXPERIMENT_SUMMARY: Pharmacokinetic profile after single oral, intranasal and intravenous betahistine in beagle dogs, Example 5
- Type: in vivo
- CONDITIONS: female, beagle, dog, in vivo, po, 12 mg/kg, Betahistine Plasma Concentration
MEASURED_ENDPOINT: concentration at 2 h (ng/mL)
Report the value in ng/mL with no unit label.

q: Query (compound): CNCCc1ccccn1 ; field requested: concentration at 2 h
a: 0.263

---

- EXPERIMENT_SUMMARY: Pharmacokinetic profile after single oral, intranasal and intravenous betahistine in beagle dogs, Example 5
- Type: in vivo
- CONDITIONS: male, beagle, dog, in vivo, po, 12 mg/kg, Betahistine Plasma Concentration
MEASURED_ENDPOINT: concentration at 24 h (ng/mL)
Report the value in ng/mL with no unit label.

q: Query (molecule): CNCCc1ccccn1 ; field requested: concentration at 24 h
a: 0.021
